# test-system: PI3Kγ (p110γ) Recombinant Human Protein (Homo sapiens (Human))
# Sequence (P48736 whole entry): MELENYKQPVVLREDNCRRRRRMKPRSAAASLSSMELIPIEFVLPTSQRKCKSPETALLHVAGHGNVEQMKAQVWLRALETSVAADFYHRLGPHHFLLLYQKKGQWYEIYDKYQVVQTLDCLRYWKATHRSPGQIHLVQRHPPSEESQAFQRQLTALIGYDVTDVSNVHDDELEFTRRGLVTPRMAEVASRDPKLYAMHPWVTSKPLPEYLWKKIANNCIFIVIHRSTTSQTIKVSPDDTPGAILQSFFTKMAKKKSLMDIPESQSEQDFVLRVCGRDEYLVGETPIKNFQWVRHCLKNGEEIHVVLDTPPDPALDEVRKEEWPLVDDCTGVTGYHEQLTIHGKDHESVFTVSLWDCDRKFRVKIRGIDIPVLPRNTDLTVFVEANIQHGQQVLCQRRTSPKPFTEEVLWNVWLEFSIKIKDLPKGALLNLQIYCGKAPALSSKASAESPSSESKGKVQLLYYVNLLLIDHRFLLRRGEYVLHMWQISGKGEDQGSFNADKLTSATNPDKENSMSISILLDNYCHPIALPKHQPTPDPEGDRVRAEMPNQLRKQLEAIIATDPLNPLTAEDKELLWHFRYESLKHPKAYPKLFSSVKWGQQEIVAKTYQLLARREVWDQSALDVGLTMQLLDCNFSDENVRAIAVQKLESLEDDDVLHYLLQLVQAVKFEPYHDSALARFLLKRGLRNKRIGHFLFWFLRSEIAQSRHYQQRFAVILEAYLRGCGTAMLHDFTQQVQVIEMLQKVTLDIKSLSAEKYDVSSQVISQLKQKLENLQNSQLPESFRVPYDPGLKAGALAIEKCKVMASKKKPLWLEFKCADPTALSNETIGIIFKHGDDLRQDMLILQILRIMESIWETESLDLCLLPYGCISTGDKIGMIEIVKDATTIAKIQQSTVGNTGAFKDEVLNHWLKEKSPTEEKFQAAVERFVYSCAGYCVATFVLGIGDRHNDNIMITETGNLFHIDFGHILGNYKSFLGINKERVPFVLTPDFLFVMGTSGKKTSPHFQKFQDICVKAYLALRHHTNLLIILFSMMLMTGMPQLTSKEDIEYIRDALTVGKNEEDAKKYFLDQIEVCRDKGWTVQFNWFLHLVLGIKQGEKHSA
# protocol-text: PI3K-γ Scintillation Proximity Assay
# Format: biochemical
# condition-notes: read-out: PI3Kγ IC50
Where a name gives a salt, the structure may show the parent alone.
measurement-kind: IC50

Cc1ccc(-c2cnc3c(N)ncnn23)cc1S(=O)(=O)NC12CCC(C#N)(C1)C2 [Example 369, trifluoroacetate salt]
< 100 nM
Cc1cc(C)c(S(=O)(=O)NC23CCC(CO)(C2)C3)cc1-c1cnc2c(N)nc(C(F)(F)F)cn12 [Example 400, trifluoroacetate salt]
< 100 nM
Cc1ccc(S(=O)(=O)N[C@H]2CC[C@H](O)CC2)cc1-c1cnc2c(N)nc(-c3cnn(C)c3)cn12
< 100 nM
Cc1cc(-c2cnc3c(N)nccn23)cc(S(=O)(=O)N[C@H]2CC[C@H](O)CC2)c1
500 to 2000 nM
Cc1ccc(S(=O)(=O)NCC2(C)COC2)cc1-c1cnc2c(N)cccn12 [Example 3, trifluoroacetate]
100 to 500 nM

Given Cc1ccc(S(=O)(=O)NC23CC(C#N)(C2)C3)cc1-c1cnc2c(N)nc(C(F)(F)F)nn12 [Example 330, trifluoroacetate salt] , state its recorded IC50.
< 100 nM

What value of IC50 has been reported for the following compound? `Cc1ccc(S(C)(=O)=O)cc1-c1cnc2c(N)nc(-c3ccc(C(=O)N(C)C)cc3F)cn12`
< 100 nM
